All values here come from ChEMBL document CHEMBL1201862.

# Tested on: HL-60
# protocol_details: NCI tumour cell line growth inhibition, 48 h
Calls of active or inactive are those of the source. Cut-off read from the data, not from the text of the source: active = GI50 up to about 1.1 µM and inactive = higher.
// one of 1 (yes) = active, 0 (no) = inactive, no free text

INSERT INTO results (compound, assigned_class) VALUES
  ('COC(=O)/C(=N\NC(N)=O)C(C(=O)C=C(C)C)C(=O)C(=O)Nc1ccc(Cl)c(Cl)c1 (configuration not stated)', '0 (no)'),
  ('CCCCCCCCCCCCOC1C(COCCN2CCCC2)OC2OC(C)(C)OC21 (configuration not stated)', '1 (yes)'),
  ('COc1ccc(OC)c(N2C(=O)CSC2c2cc(OC)c(OC)c(OC)c2)c1 (configuration not stated)', '0 (no)'),
  ('CCCSc1ccc2[nH]c(/N=C/c3ccco3)cc2c1', '0 (no)'),
  ('COc1cccc(N2C(=O)C3c4[nH]c5ccc(C)cc5c4C4CCC(C)CC4C3C2=O)c1 (configuration not stated)', '0 (no)'),
  ('O=C(N/N=C(/c1nc2ccc(Cl)cc2[nH]c1=O)C(O)c1ccc(Cl)cc1Cl)c1ccncc1 (configuration not stated)', '0 (no)');

Short answer needed: outcome of this test for OC(C1CCCCCCCCCC1)C(O)C1CCCCCCCCCC1 (configuration not stated) ?
0 (no)

Tell me the assay call for N#CC1CCN2N=C(c3ccccc3)SC12c1ccccc1 (configuration not stated) please.
0 (no)

Hey, what did the test say about O=C(O)CCCCC1CCSS1 (stereo not drawn) [LIPOIC ACID, ALPHA] ?
0 (no)

For this compound, state the assay outcome: CSc1nc2c(c(=O)n1C)N=C(c1ccc([N+](=O)[O-])cc1)CC(c1ccccc1)N2 (configuration not stated)
0 (no)

State the result this test recorded for O=C1C=CC(=O)N1n1c(Cc2ccccc2)n[nH]c1=O .
0 (no)

Please share the test call associated with CCOC(=O)C1=C(C(=O)OCC)C2c3ccccc3C=CN2C(C(=O)OCC)=C(SC)S1 (configuration not stated) .
0 (no)

What outcome does the record of this test show for O=C1CCc2cc(Br)ccc2O1 ?
0 (no)

Hello, I am checking results. What call was entered for CCN(CC)CCCNc1ncc(C)c2[nH]c3ccncc3c12 ?
0 (no)

What did this assay record as the result for C=CCN(N=O)C(=O)N(CCC)CCCC(NC(C)=O)C(=O)NCc1ccccc1 (configuration not stated) ?
0 (no)

Short answer needed: outcome of this test for CC(C)C1SCc2nc3ccccc3n21 (configuration not stated) ?
0 (no)

Which result was noted for this compound in the test: CC12Nc3ccccc3C1=C(c1ccccc1)CC1C(=O)OC(=O)C12 (configuration not stated)
0 (no)

Outcome? Cn1cc(C[C@@H](N)C(=O)O)c2ccccc21 [INDOXIMOD]
0 (no)

Dear colleague, could you share the recorded outcome for COc1cc2c(oc(=O)c3c4occc4cc(OC)c23)c2cccc(OCc3ccccc3)c12 when you have a moment?
0 (no)

Test call, this compound: O=C(Nc1nc2ccc([N+](=O)[O-])cc2s1)C(=O)C(C(=O)c1ccccc1F)C1OC(=O)c2ccccc21 (configuration not stated)
0 (no)

Hi team, can someone confirm the assay call for CN(C)C(=S)SCC(=O)Nc1ccccc1 ?
0 (no)

Please let me know the test result on file for N#C/C(=C\c1cc2ccccc2c2ccccc12)c1ccccc1 .
0 (no)
